Catalogue of binders with associated glycan array binding signal (z-score)
Target entity: Neu5Ac(a2-6)Gal(b1-4)GlcNAc(b1-3)Gal(b1-4)GlcNAc(b1-3)Gal(b1-4)GlcNAc(b1-2)Man(a1-3)[Neu5Ac(a2-6)Gal(b1-4)GlcNAc(b1-3)Gal(b1-4)GlcNAc(b1-3)Gal(b1-4)GlcNAc(b1-2)Man(a1-6)]GalNAc
Protocol notes: glycan array binding signal (z-score within array); higher = stronger binding
Assay setup: glycan notation: IUPAC condensed, linker removed
The sample as a whole holds a higher share of the strongest signals than the screen did.
Returns: the value as a bare number; no unit string appended.

Field: example entries. Status: answers known.
Binder: Epa8 (Candida glabrata) (protein) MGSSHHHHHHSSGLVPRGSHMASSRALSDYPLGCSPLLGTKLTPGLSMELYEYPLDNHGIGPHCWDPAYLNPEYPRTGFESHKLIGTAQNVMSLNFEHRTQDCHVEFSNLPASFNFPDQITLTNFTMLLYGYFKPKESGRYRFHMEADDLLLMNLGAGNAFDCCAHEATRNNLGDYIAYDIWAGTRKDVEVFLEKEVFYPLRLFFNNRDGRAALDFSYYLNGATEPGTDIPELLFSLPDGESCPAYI
glycan array binding signal (z-score): 3.31
//
Binder: FliC (Clostridium difficile) (protein) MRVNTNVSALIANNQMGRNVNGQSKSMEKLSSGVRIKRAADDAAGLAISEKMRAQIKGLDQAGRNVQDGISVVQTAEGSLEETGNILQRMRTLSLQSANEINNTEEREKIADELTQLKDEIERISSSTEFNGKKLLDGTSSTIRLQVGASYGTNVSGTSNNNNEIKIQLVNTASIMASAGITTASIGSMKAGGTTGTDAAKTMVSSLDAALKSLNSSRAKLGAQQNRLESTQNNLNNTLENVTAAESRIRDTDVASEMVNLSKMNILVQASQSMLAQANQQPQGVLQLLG
glycan array binding signal (z-score): 2.32

[ask] Respond only with glycan array binding signal (z-score) recorded for Pwp7 (Candida glabrata) (protein) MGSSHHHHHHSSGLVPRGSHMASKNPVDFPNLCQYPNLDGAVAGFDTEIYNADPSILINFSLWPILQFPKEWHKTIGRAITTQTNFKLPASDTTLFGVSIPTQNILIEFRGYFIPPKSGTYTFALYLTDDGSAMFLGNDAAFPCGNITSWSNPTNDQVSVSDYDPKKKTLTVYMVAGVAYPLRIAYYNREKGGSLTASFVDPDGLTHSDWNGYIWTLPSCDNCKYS
[reply] 3.78
